Method description: Stability in Simulated Intestinal Fluid (SIF)
Format: in vitro ADME
Design: key: % parent compound remaining relative to 0-minute sample
Assay conditions: % remaining at 1 h in simulated intestinal fluid; the 15th table
Property name: SIF (% remaining)

[[record]]
compound = "COC(=O)OCSc1nc(=O)c2[nH]ccc2n1CCOC(C)C [Example 200]"
assay_value = 75

[[record]]
compound = "CC(C)OCCn1c(SCOC(=O)NCc2ccccc2)nc(=O)c2c1ccn2C(=O)NCc1ccccc1 [Example 193]"
assay_value = 57

[[record]]
compound = "CC(C)OCCn1c(SCOC(=O)NCc2ccccc2)nc(=O)c2[nH]ccc21 [Example 192]"
assay_value = 50

[[record]]
compound = "CC(C)OCCn1c(=S)[nH]c(=O)c2c1ccn2CO [Example 197]"
assay_value = 55

[[record]]
compound = "COC(=O)OCSc1nc(=O)c2c(ccn2CSc2nc(=O)c3[nH]ccc3n2CCOC(C)C)n1CCOC(C)C [Example 199]"
assay_value = 79

[[record]]
compound = "CC(C)NC(=O)OCSc1nc(=O)c2[nH]ccc2n1CCOC(C)C [Example 196]"
assay_value = 98

